Recorded Ki, one value per entry.
biological target: Elastase (Pseudomonas aeruginosa (strain ATCC 15692 / PAO1 / 1C / PRS 101 / LMG12228), UniProt P14756); assay: Inhibition of Pseudomonas aeruginosa LasB by fluorimetric assay in buffer of pH 7.2; details: read-out: Ki
Sequence (P14756 whole entry): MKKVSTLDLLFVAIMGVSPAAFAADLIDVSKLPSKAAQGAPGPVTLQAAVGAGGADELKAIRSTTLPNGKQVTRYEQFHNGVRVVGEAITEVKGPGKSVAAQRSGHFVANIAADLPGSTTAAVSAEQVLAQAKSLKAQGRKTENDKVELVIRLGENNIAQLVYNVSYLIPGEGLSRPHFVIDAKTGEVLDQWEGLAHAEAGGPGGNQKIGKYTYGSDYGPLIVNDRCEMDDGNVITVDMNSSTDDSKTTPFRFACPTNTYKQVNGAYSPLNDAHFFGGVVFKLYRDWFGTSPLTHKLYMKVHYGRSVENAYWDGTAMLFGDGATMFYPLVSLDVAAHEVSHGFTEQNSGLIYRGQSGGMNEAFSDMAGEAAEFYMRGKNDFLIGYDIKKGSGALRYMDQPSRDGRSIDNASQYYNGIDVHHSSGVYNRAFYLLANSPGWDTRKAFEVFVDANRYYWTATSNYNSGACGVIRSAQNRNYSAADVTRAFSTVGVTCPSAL
Only the number, expressed in µM, is required.

Illustrative cases are given below, each with its answer.
INSERT INTO assay_data (input_smiles, result_number) VALUES
  ('NCCCC[C@H](NC(=O)[C@H](CS)NC(=O)CS)C(N)=O', 274),
  ('NC(=O)[C@H](CCCN=C(N)N)NC(=O)[C@H](CC(=O)O)NC(=O)CS', 551),
  ('CSCC[C@H](NC(=O)CS)C(=O)N[C@@H](Cc1ccccc1)C(N)=O', 867);

molecule NC(=O)[C@H](CCCN=C(N)N)NC(=O)CNC(=O)CS , Ki observed: 641

Reported Ki ( C[C@@H](O)[C@H](NC(=O)CS)C(=O)N[C@@H](CCCN=C(N)N)C(N)=O ) = 616

====

We begin with a simple list: items and their reported Ki.
molecular target: Elastase (Pseudomonas aeruginosa (strain ATCC 15692 / PAO1 / 1C / PRS 101 / LMG12228)); test: Inhibition of Pseudomonas aeruginosa LasB by fluorimetric assay in buffer of pH 7.2; details: read-out: Ki
Express it in µM; write the number only.

INSERT INTO measurements (input_smiles, property_name, result_number) VALUES
  ('NCCCC[C@H](NC(=O)[C@H](CCC(=O)O)NC(=O)CS)C(N)=O', 'Ki', 553),
  ('CC(C)C[C@H](NC(=O)[C@H](Cc1ccccc1)NC(=O)CS)C(N)=O', 'Ki', 645),
  ('NC(=O)[C@H](Cc1c[nH]c2ccccc12)NC(=O)[C@H](Cc1ccccc1)NC(=O)CS', 'Ki', 206);

Ki measured on CC(C)C[C@H](NC(=O)[C@H](C)NC(=O)CS)C(N)=O = 21

Lab note: measured Ki of NC(=O)C[C@H](NC(=O)CS)C(=O)N[C@@H](Cc1c[nH]c2ccccc12)C(N)=O was 70

In plain terms, NC(=O)[C@H](Cc1ccccc1)NC(=O)[C@H](CCC(=O)O)NC(=O)CS has a documented Ki of 146

// recorded Ki for CC(C)[C@H](NC(=O)[C@H](Cc1ccccc1)NC(=O)CS)C(N)=O : 11

Looking up NC(=O)[C@H](CC(=O)O)NC(=O)[C@H](Cc1c[nH]c2ccccc12)NC(=O)CS , I see its Ki listed as 38

====

molecular target: Elastase (Pseudomonas aeruginosa (strain ATCC 15692 / PAO1 / 1C / PRS 101 / LMG12228), UniProt P14756); experiment: Inhibition of Pseudomonas aeruginosa LasB by fluorimetric assay in buffer of pH 7.2; conditions: read-out: Ki
property.name: Ki (µM)
Quick note: give the figure in µM, leave out the unit.

Ki reading for CC(C)C[C@H](NC(=O)[C@H](CC(=O)O)NC(=O)CS)C(N)=O : 118

Query CC(C)[C@H](NC(=O)[C@H](CCC(N)=O)NC(=O)CS)C(N)=O yields Ki of 937

// field: Ki; key: CSCC[C@H](NC(=O)CS)C(=O)N[C@@H](CCCCN)C(N)=O ; value = 3.9

GET /value?item= CC(C)[C@H](NC(=O)[C@H](CS)NC(=O)CS)C(N)=O &field=Ki returns 161

Entry NCCCC[C@H](NC(=O)[C@H](Cc1c[nH]c2ccccc12)NC(=O)CS)C(N)=O ; Ki = 10

// NCCCC[C@H](NC(=O)CS)C(=O)N[C@@H](CC(=O)O)C(N)=O : Ki value = 971

Short answer for NC(=O)[C@H](CC(=O)O)NC(=O)[C@H](Cc1ccc(O)cc1)NC(=O)CS : Ki was 5.5

Summary for this compound, CSCC[C@H](NC(=O)CS)C(=O)N[C@@H](Cc1c[nH]c2ccccc12)C(N)=O : Ki is 204

====

biological target: Elastase (Pseudomonas aeruginosa (strain ATCC 15692 / PAO1 / 1C / PRS 101 / LMG12228)); test: Inhibition of Pseudomonas aeruginosa LasB by fluorimetric assay in buffer of pH 7.2; conditions: read-out: Ki
Entries annotated with measured Ki
# output: bare number, implied unit µM

INSERT INTO measurements (input_smiles, uom, result_number) VALUES
  ('CC(C)C[C@H](NC(=O)[C@@H](NC(=O)CS)C(C)C)C(N)=O', 'µM', 69);

The molecule CC[C@@H](C)[C@H](NC(=O)CS)C(=O)N[C@@H](CCCCN)C(N)=O on Elastase (Pseudomonas aeruginosa (strain ATCC 15692 / PAO1 / 1C / PRS 101 / LMG12228)): Ki was 190

# lookup: CC(C)C[C@H](NC(=O)[C@H](CCC(N)=O)NC(=O)CS)C(N)=O on Elastase (Pseudomonas aeruginosa (strain ATCC 15692 / PAO1 / 1C / PRS 101 / LMG12228)), Ki = 540

Note to self: Ki of CC(C)C[C@H](NC(=O)CS)C(=O)N[C@@H](CC(=O)O)C(N)=O with Elastase (Pseudomonas aeruginosa (strain ATCC 15692 / PAO1 / 1C / PRS 101 / LMG12228)) was 587

Recorded Ki for CC(C)C[C@H](NC(=O)CS)C(=O)N[C@@H](Cc1c[nH]c2ccccc12)C(N)=O on Elastase (Pseudomonas aeruginosa (strain ATCC 15692 / PAO1 / 1C / PRS 101 / LMG12228)) was 300

Tested on Elastase (Pseudomonas aeruginosa (strain ATCC 15692 / PAO1 / 1C / PRS 101 / LMG12228)): NC(=O)[C@H](CC(=O)O)NC(=O)[C@H](CCCN=C(N)N)NC(=O)CS . Observed Ki: 650

Result for N=C(N)NCCC[C@H](NC(=O)[C@H](CC(N)=O)NC(=O)CS)C(N)=O , tested on Elastase (Pseudomonas aeruginosa (strain ATCC 15692 / PAO1 / 1C / PRS 101 / LMG12228)), Ki: 280

Given the molecule C[C@H](NC(=O)CS)C(=O)N[C@@H](CCCNC(=N)N)C(N)=O and test system Elastase (Pseudomonas aeruginosa (strain ATCC 15692 / PAO1 / 1C / PRS 101 / LMG12228)), the measured Ki is 115

Value sought: Ki, system Elastase (Pseudomonas aeruginosa (strain ATCC 15692 / PAO1 / 1C / PRS 101 / LMG12228)), item CC(C)C[C@H](NC(=O)[C@H](CO)NC(=O)CS)C(N)=O . Result: 510

The reported Ki value, Elastase (Pseudomonas aeruginosa (strain ATCC 15692 / PAO1 / 1C / PRS 101 / LMG12228)), for CC(C)[C@H](NC(=O)[C@H](CCCCN)NC(=O)CS)C(N)=O reads 555

====

# Lookup of reported pKi keyed by entry
biological target: Elastase (Pseudomonas aeruginosa (strain ATCC 15692 / PAO1 / 1C / PRS 101 / LMG12228), UniProt P14756); test: Inhibition of Pseudomonas aeruginosa LasB by fluorimetric assay in buffer of pH 7.2; settings: read-out: Ki
Scale explanation: pKi corresponds to minus log10 of a concentration expressed in moles per litre.

Field: example entries. Status: answers known.
INSERT INTO measurements (input_smiles, property_name, result_number) VALUES
  ('CC[C@@H](C)[C@H](NC(=O)CS)C(=O)N[C@@H](CC(=O)O)C(N)=O', 'pKi', 3.85),
  ('NC(=O)[C@H](Cc1c[nH]c2ccccc12)NC(=O)[C@H](Cc1ccc(O)cc1)NC(=O)CS', 'pKi', 4.85),
  ('CC(C)C[C@H](NC(=O)[C@H](CCCCN)NC(=O)CS)C(N)=O', 'pKi', 3.91),
  ('CC[C@@H](C)[C@H](NC(=O)CS)C(=O)N[C@H](C(N)=O)C(C)C', 'pKi', 5.74),
  ('NC(=O)[C@H](Cc1c[nH]c2ccccc12)NC(=O)[C@H](CCCN=C(N)N)NC(=O)CS', 'pKi', 3.90);

Item: NC(=O)[C@H](Cc1c[nH]c2ccccc12)NC(=O)[C@@H]1CCCN1C(=O)CS | pKi: 3.25

pKi in this record for NC(=O)[C@H](Cc1c[nH]c2ccccc12)NC(=O)[C@H](Cc1c[nH]c2ccccc12)NC(=O)CS : 4.31

pKi measured on CSCC[C@H](NC(=O)CS)C(=O)N[C@@H](CCCNC(=N)N)C(N)=O = 5.18

Record NCCCC[C@H](NC(=O)[C@H](Cc1c[nH]cn1)NC(=O)CS)C(N)=O . Reported pKi: 3.48

====

Parameter Ki: see the listing below.
biological target: Elastase (Pseudomonas aeruginosa (strain ATCC 15692 / PAO1 / 1C / PRS 101 / LMG12228)); assay: Inhibition of Pseudomonas aeruginosa LasB by fluorimetric assay in buffer of pH 7.2; conditions: read-out: Ki
Please give a number only; it is taken to be in µM.

Worked examples follow.
INSERT INTO assay_data (input_smiles, property_name, result_number) VALUES
  ('CC(C)C[C@H](NC(=O)[C@H](Cc1c[nH]cn1)NC(=O)CS)C(N)=O', 'Ki', 306),
  ('CC(C)C[C@H](NC(=O)[C@H](CC(N)=O)NC(=O)CS)C(N)=O', 'Ki', 508),
  ('CC(C)[C@H](NC(=O)CS)C(=O)N[C@@H](CCCN=C(N)N)C(N)=O', 'Ki', 69),
  ('NC(=O)[C@H](CCCN=C(N)N)NC(=O)[C@H](Cc1ccc(O)cc1)NC(=O)CS', 'Ki', 3),
  ('CC(C)[C@H](NC(=O)[C@H](Cc1ccc(O)cc1)NC(=O)CS)C(N)=O', 'Ki', 0.77),
  ('NC(=O)[C@H](Cc1c[nH]c2ccccc12)NC(=O)[C@H](CCC(=O)O)NC(=O)CS', 'Ki', 704),
  ('CSCC[C@H](NC(=O)CS)C(=O)N[C@H](C(N)=O)C(C)C', 'Ki', 98);

// switching to the query compound
Note to self: Ki recorded for CC(C)[C@H](NC(=O)[C@@H](NC(=O)CS)C(C)C)C(N)=O was 10
